tested on: DeltatarO mutant; test: S. aureus survival, RN4220 and DeltatarO strains – OD600, teichoic acid synthesis inhibitors, primary screen (AID 463173); conditions: S. aureus RN4220 wild type/DeltatarO growth, OD600, 18 h, active compounds read low, screened at 18.75 µg/mL (by protocol)
The whole screen tested about 52,000 compounds, of which about 4,300 (8.3%) were called active. Many of the other results were omitted from the sample, so actives are more common in it than they were.

| molecule | targetOfAssay | unitTag | survival |
| --- | --- | --- | --- |
| O=C(NCCc1ccccc1)c1ccc2c(c1)N(Cc1ccc(F)cc1)C(=O)CS2 | DeltatarO mutant | % | 74 |
| COc1ccccc1CNC(=O)c1ccc2c(c1)N(Cc1ccc(C)cc1)CCS2 | DeltatarO mutant | % | 83 |
| Cc1ccc(NC(=O)CN2C(=O)CCc3cc(S(=O)(=O)N4CCOCC4)ccc32)cc1N(C)C | DeltatarO mutant | % | 93 |
| CCC(Sc1nnc2c3ccccc3n(CC)c2n1)C(=O)Nc1ccc(NC(C)=O)cc1 (stereo not given) | DeltatarO mutant | % | 104 |
| O=C(NCCc1ccc(Cl)cc1)c1ccc2c(c1)N(Cc1ccc(F)cc1)C(=O)CS2 | DeltatarO mutant | % | 37 |
| O=C(NCc1ccc(F)cc1)c1ccc2c(c1)N(Cc1c(F)cccc1Cl)C(=O)CS2 | DeltatarO mutant | % | 40 |
| COc1ccc(Cl)cc1NC(=O)CN1C(=O)C(C)(C)c2cc(S(=O)(=O)N3CCCCC3)ccc21 | DeltatarO mutant | % | 70 |
| Cc1cc(NC(=O)OC2CCCC2)ccc1NC(=O)OC1CCCCC1 | DeltatarO mutant | % | 75 |
| O=C(NCCc1ccc(Cl)cc1)c1ccc2c(c1)N(Cc1ccc(Cl)cc1)C(=O)CS2 | DeltatarO mutant | % | 50 |
| O=C(NCc1ccc2c(c1)OCO2)c1ccc2c(c1)N(Cc1c(F)cccc1Cl)C(=O)c1ccccc1S2 | DeltatarO mutant | % | 86 |
| Cc1cc(F)ccc1NC(=O)CN1C(=O)CCc2cc(S(=O)(=O)N3CCOCC3)ccc21 | DeltatarO mutant | % | 76 |
| Cc1cc(C)nc(N2CCCC(C)C2)n1 (stereo not given) | DeltatarO mutant | % | 87 |
| Cc1ccc2c(c1)N(CC(=O)Nc1ccccc1C(F)(F)F)C(=O)c1cccnc1O2 | DeltatarO mutant | % | 100 |
| CC1CCN(c2nc3nonc3nc2Nc2ccc(F)cc2)CC1 | DeltatarO mutant | % | 78 |
| CC1CCN(CC(=O)N2CCCc3c2c(=O)oc2ccc(OCc4ccccc4)cc32)CC1 | DeltatarO mutant | % | 98 |
| Cc1cc(=O)n(Cc2ccc(F)cc2Cl)c2c1c(C)nn2-c1ccccc1 | DeltatarO mutant | % | 96 |
| COc1ccc(OC)c(NC(=O)CN2C(=O)CCc3cc(S(=O)(=O)N4CCCCC4)ccc32)c1 | DeltatarO mutant | % | 32 |
| Cc1ccc(Cl)cc1NC(=O)CN1C(=O)C(C)(C)c2cc(S(=O)(=O)N3CCCCC3)ccc21 | DeltatarO mutant | % | 6 |
| COc1ccc(C)cc1NC(=O)CN1C(=O)CCc2cc(S(=O)(=O)N3CCOCC3)ccc21 | DeltatarO mutant | % | 94 |
| CCC1CCCCN1CC(=O)N1CCCc2c1c(=O)oc1ccc(OCc3ccccc3)cc21 (stereo not given) | DeltatarO mutant | % | 18 |
